biological target: human glucagon-like peptide 1 receptor (GLP-1 R) (human, UniProt P43220 24-463); assay: cell-based or functional assay
*1 amine or outer side, *2 acyl side, *3 side chain or, on linkers, in order; H or OH if unused. Side-chain parts run from the residue outwards. [ ]: non-standard residue; d: D form. The star is where a group is joined. C20 diacid = O=C(O)CCCCCCCCCCCCCCCCCCC(=O)*; C18 diacid = O=C(O)CCCCCCCCCCCCCCCCC(=O)*; γGlu = O=C(O)[C@H](CCC(=O)[*:2])N[*:1]; AEEA = NCCOCCOCC(=O)O; Aib = CC(C)(N)C(=O)O

>  <binder>
H-H[Aib]EGTFTSELATILDK([AEEA-Lys-Glu-Lys-γGlu-C20 diacid])QAARDFIAWLIQHKITD-OH [Compound 52]

>  <EC50 GLP-1 (nM); cAMP response>
0.02

$$$$
>  <binder>
H-H[Aib]EGTFSSELATILDK([AEEA-Lys-Glu-Lys-γGlu-C18 diacid])QAARDFIAWLIQHKITD-OH [Compound 47]

>  <EC50 GLP-1 (nM); cAMP response>
0.44

$$$$
>  <binder>
H-H[Aib]EGSFTSELATILDEQAAK([AEEA-AEEA-Lys-Glu-Lys-γGlu-C20 diacid])DFIAWLIEHKITD-OH [Compound 66]

>  <EC50 GLP-1 (nM); cAMP response>
0.65

$$$$
>  <binder>
HGDGSFSDEMNTILDNLAARDFINWLIQTKITD [Teduglutide]

>  <EC50 GLP-1 (nM); cAMP response>
39

$$$$
